Tested on: DIO3 (gene 1735)
Test: CCTE_GLTED_hDIO3: CCTE's human Deiodinase 3 (DIO3) Inhibition Assay, Great Lakes Toxicology and Ecology Division (GLTED) Lab (AID 2284055);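 further: potency is for inhibition seen as loss of released iodide signal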
The source made the active and inactive calls. How the source made its calls: active means hit-call score of the fitted dose curve at least 0.9, where 1 is the maximum; inconclusive means response in the unintended direction; inactive means score below 0.9.
Below is a list of entries, each paired with its recorded AC50 value.

| compoundString | tgt | dataValue |
| --- | --- | --- |
| CCCCCOC(=O)COc1cc(N2C(=O)C3=C(CCCC3)C2=O)c(F)cc1Cl | DIO3 (gene 1735) | 100 µM (active) |

Record request: AC50 value, item CC(=O)S[C@@H]1CC2=CC(=O)CC[C@]2(C)[C@H]2CC[C@@]3(C)[C@@H](CC[C@@]34CCC(=O)O4)[C@H]12
100 µM (active)

Would you kindly repeat that for CC(C)CCCCCCc1ccc(O)cc1 ?
18.8 µM (active)

// repeat for CCCN(CCC)c1c([N+](=O)[O-])cc(C(F)(F)F)c(N)c1[N+](=O)[O-] and report
21.4 µM (active)
